tested on: MDA-N; experiment: NCI tumour cell line growth inhibition, 48 h
Recorded Endpoint: TGI (nM)
Express your answer in nM, writing the number without its unit.

Solved cases (3 shown):
Measured TGI, O=C(CBr)N1CCC2(CC1)SSC1(CCN(C(=O)CBr)CC1)S2 : 2810

Lab note: COc1cc2ccccc2c2cc([N+](=O)[O-])oc12 gave TGI of 849

molecule CO[C@H]1[C@@H](O)[C@@H](C)O[C@@H](O[C@H]2CC[C@@]3(C)[C@H](CC[C@@H]4[C@@H]3CC[C@]3(C)[C@@H](C5=CC(=O)OC5)CC[C@]43O)C2)[C@@H]1O , TGI observed: 50.4

Continuing:
Lab note: Cc1nc(Cl)c2sc(=S)n(-c3ccc(F)cc3)c2n1 gave TGI of 3950

----------
tested on: A549 NSCLC; assay: NCI tumour cell line growth inhibition, 48 h
Recorded Endpoint: TGI

The examples below pair each entry with its known result.
TGI on A549 NSCLC for Cc1nc(Cl)c2sc(=S)n(-c3ccc(F)cc3)c2n1 is 25.4 µM

Form field, TGI with A549 NSCLC, item CO[C@H]1O[C@@H]2CO[C@@H](c3ccccc3)O[C@H]2[C@@H]2CC=CCC[C@]12O : > 100 µM

Per the reported A549 NSCLC data, O=C(CC(=O)c1ccc([N+](=O)[O-])cc1)C(=O)Nc1nccs1 has TGI of > 100 µM

Tested on A549 NSCLC, the item COC(=O)C1CC(=O)CCC1c1ccccc1 (stereo unspecified) showed TGI equal to > 100 µM

Readout TGI for CC1CC(=O)Nc2cc(Cl)ccc2N1C(=O)C1CC1 (stereo unspecified) , test system A549 NSCLC, was > 100 µM

Field: next compound
Form: item CSc1c(C#N)c(O)n(-c2ccc(C)cc2)c(=O)c1C#N ; test system A549 NSCLC; TGI: > 100 µM

----------
tested on: NCI-H460 lung; assay: NCI tumour cell line growth inhibition, 48 h
Below, each of the compounds is paired with its reported TGI value.
Give the quantity in µM, number only.

For this compound ( COc1ccc(CN2C(=O)C(Cc3cc(OC)c(OC)c(C)c3OC)NC(=O)/C2=C/c2cc(OC)c(OC)c(C)c2OC)cc1 (stereo not given) ), measured TGI is 57

***
get_value(item= O=C(O)c1nc2cc(C(F)(F)F)ccc2nc1Nc1ccc(Cl)c(Cl)c1 , readout=TGI) returns 26.3

----------
test system: TK-10 renal; test: NCI tumour cell line growth inhibition, 48 h
Recorded Endpoint: GI50

Consider the following illustrative entries.
Entry Cn1cc(C2=C(c3c4n(c5ccccc35)CCCC4)C(=O)NC2=O)c2ccccc21 — recorded GI50 = > 20100 nM

The recorded GI50 for entry COc1ccc(Cl)cc1Nc1nc(C(F)(F)F)ccc1C(=O)N/N=C/c1ccc([N+](=O)[O-])cc1 equals 1220 nM

New cases:
// GI50 value for COc1cc(/C=N/Nc2ncnc3c2cnn3C(C)C)ccc1O : 8300 nM

Recorded result, O=C(COc1ccc(/C=C2\Oc3ccccc3C2=O)cc1)Nc1nccs1 , GI50: 85100 nM

The compound Cc1ccc(S(=O)(=O)OC[C@]23CCC(C)(C)C[C@H]2C2=CC[C@@H]4[C@@]5(C)CCCNC(C)(C)[C@@H]5CC[C@@]4(C)[C@]2(C)CC3)cc1 showed GI50 equal to 1770 nM

The reported GI50 of the compound Cc1cc(N2CCN(C)CC2)nc(NCc2cc(Nc3ccnc4cc(Cl)ccc34)ccc2F)n1 was 2250 nM

Measured GI50 of C=CCn1c(=O)c2cnc(Nc3ccc(N4CCN(C)CC4)cc3)nc2n1-c1ccc2c(n1)[C@@](O)(CC)CC2 : 1410 nM

GI50 recorded for this compound, CN1CCN(CCCOc2cccc3nc(Nc4ccc(Cl)c(F)c4)ccc23)CC1 , is 1810 nM

// CN(C)c1ccc2c(c1)CN1C(=O)c3ccccc3C1=N2 : GI50 value = > 100000 nM

Per the record, COc1cc(-c2n/c(=C\c3c(O)[nH]c4ccc(Cl)cc34)cc3c2=Nc2ccccc2-3)cc(OC)c1OC has GI50 of 1500 nM

The compound CC(=O)Nc1ccc(-c2c3nc(c(-c4cc5ccccc5[n+](C)c4)c4ccc([nH]4)c(-c4ccc(NC(C)=O)cc4)c4nc(c(-c5cc6ccccc6[n+](C)c5)c5ccc2[nH]5)C=C4)C=C3)cc1 showed GI50 equal to 15200 nM
